test system: HIV-1 (H9IIIB strain); test: Cell-Based HIV Infection Assay Using a Reporter (MT4-GFP cells); conditions: Human immunodeficiency virus 1, inflection point (IP) of viral growth inhibition; MT4-GFP cells infected with HIV-1 H9IIIB; 50% normal human serum; mean of at least two independent experiments; read-out: Cell Based IP (50% NHS)
// EC50 lookup, one value per entry
// note: answer is a bare numeric in nM

1. CO[C@H]1CC[C@H]([C@H](c2ccc(F)cc2)[C@H](N)C(=O)Nc2cccc(F)c2CC[C@H]2CN[C@@H]3CCCS(=O)(=O)N2C3)CC1 [Example 118] :: 7.5

Input line: I am curious: what EC50 value has been reported for N[C@H](C(=O)Nc1cccc(F)c1CCC1CNC2CCCS(=O)(=O)N1C2)[C@@H](c1ccc(F)cc1)c1ccc2c(c1)CCC2 (stereo partly shown) [Example 225] ?
Output line: 45

Input line: And what about the compound COC(=O)N[C@H](C(=O)Nc1cccc(F)c1CCC1CNC2CCCS(=O)(=O)N1C2)[C@H](CCC1CCCCO1)c1ccc(Cl)cc1 (stereo partly shown) [Example 153] ?
Output line: 9.7

Input line: Also, CC(C)[C@H](c1ccc(Cl)cc1)[C@H](N)C(=O)N[C@H]1CCCC[C@@H]1CC[C@H]1CN[C@@H]2CCCS(=O)(=O)N1C2 [Example 161] please.
Output line: 78

====

system: HIV-1 (H9IIIB strain); assay: Cell-Based HIV Infection Assay Using a Reporter (MT4-GFP cells); settings: Human immunodeficiency virus 1, inflection point (IP) of viral growth inhibition; MT4-GFP cells infected with HIV-1 H9IIIB; 50% normal human serum; mean of at least two independent experiments; read-out: Cell Based IP (50% NHS)
quantity_measured: EC50 (nM)
Record the value in nM, omitting the unit from your answer.

Would you please look over these solved cases?
1) COC(=O)N[C@H](C(=O)Nc1cccc(F)c1CCC1CNC2CCCS(=O)(=O)N1C2)[C@@H](c1ccc(Cl)cc1)C(C)C (stereo partly shown) [Example 3] :: 14
2) COC(=O)N[C@H](C(=O)Nc1cccc(F)c1CCC1CNC2CCCS(=O)(=O)N1C2)[C@@H](c1ccc(Cl)cc1)c1cncc(C(C)(F)F)c1 (stereo partly shown) [Example 114] :: 22
3) N[C@H](C(=O)Nc1cncc(F)c1CC[C@H]1CN[C@@H]2CCCS(=O)(=O)N1C2)[C@@H](c1ccc(Cl)c(F)c1)C1CCCCC1 [Example 244] :: 4.3

Below: the item to evaluate.
Input line: # input molecule: COC(=O)N[C@H](C(=O)Nc1cccc(F)c1CC[C@H]1CN[C@@H]2CCC(C)S(=O)(=O)N1C2)[C@@H](c1ccc(F)cc1)C1C[C@@H](C)O[C@@H](C)C1 (stereo partly shown) [Example 109] ; wanted: its EC50
Output line: 38

====

system: HIV-1 (H9IIIB strain); assay: Cell-Based HIV Infection Assay Using a Reporter (MT4-GFP cells); conditions: Human immunodeficiency virus 1, inflection point (IP) of viral growth inhibition; MT4-GFP cells infected with HIV-1 H9IIIB; 50% normal human serum; mean of at least two independent experiments; read-out: Cell Based IP (50% NHS)
Measured EC50, listed per entry for reference.
Please respond with the number in nM and leave the unit unwritten.

The examples below pair each entry with its known result.
1. Cn1nc(C(F)(F)F)cc1[C@H](c1ccc(Cl)c(F)c1)[C@H](N)C(=O)Nc1cccc(F)c1CC[C@H]1CN[C@@H]2CCCS(=O)(=O)N1C2 :: 8
2. COC(=O)N[C@H](C(=O)Nc1cccc(F)c1CCC1CNC2CCCS(=O)(=O)N1C2)[C@H](CCC1CCOCC1)c1ccc(Cl)c(F)c1 (stereo partly drawn) :: 7.1

Proceeding to the next compound to report its EC50.
Input line: EC50 lookup needed for `Cn1nc(C(F)(F)F)cc1[C@H](c1ccc(Cl)cc1)[C@H](N)C(=O)Nc1cccc(F)c1CC[C@H]1CN[C@@H]2CCCS(=O)(=O)N1C2` , thanks.
Output line: 8.7

All values here come from patent US10138255B2.
